conditions: in methanol, 312.95 K
observable: solubility (mole fraction)

INSERT INTO assay_data (molsmiles, reading) VALUES
  ('CC1(C)COP(=O)(C(C)(C)O)OC1', 0.0792);

====

settings: in ethyl acetate, 308.15 K
observable: solubility (mole fraction)

INSERT INTO assay_data (molsmiles, reading) VALUES
  ('CC1(C)COP(=O)(C(C)(C)O)OC1', 0.00231);

====

details: in chloroform, 283.85 K
observable: solubility (mole fraction)

INSERT INTO measurements (molsmiles, reading) VALUES
  ('CC1(C)COP(=O)(C(C)(C)O)OC1', 0.0139);

====

conditions: in chloroform, 298.3 K
observable: solubility (mole fraction)

INSERT INTO measurements (molsmiles, reading) VALUES
  ('CC1(C)COP(=O)(C(C)(C)O)OC1', 0.0212);

====

settings: in acetone, 303.15 K
observable: solubility (mole fraction)

INSERT INTO measurements (molsmiles, reading) VALUES
  ('CC1(C)COP(=O)(C(C)(C)O)OC1', 0.00596);

====

settings: in methanol, 303.25 K
observable: solubility (mole fraction)

INSERT INTO measurements (molsmiles, reading) VALUES
  ('CC1(C)COP(=O)(C(C)(C)O)OC1', 0.0653);

====

conditions: in 1,2-dichloroethane, 322.7 K
observable: solubility (mole fraction)

INSERT INTO assay_data (molsmiles, reading) VALUES
  ('CC1(C)COP(=O)(C(C)(C)O)OC1', 0.00788);

====

conditions: in acetonitrile, 283.65 K
observable: solubility (mole fraction)

INSERT INTO measurements (molsmiles, reading) VALUES
  ('CC1(C)COP(=O)(C(C)(C)O)OC1', 0.00222);

====

details: in methanol, 317.75 K
observable: solubility (mole fraction)

INSERT INTO results (molsmiles, observable, reading) VALUES
  ('CC1(C)COP(=O)(C(C)(C)O)OC1', 'solubility (mole fraction)', 0.0862);

====

details: in acetonitrile, 328 K
observable: solubility (mole fraction)

INSERT INTO measurements (molsmiles, observable, reading) VALUES
  ('CC1(C)COP(=O)(C(C)(C)O)OC1', 'solubility (mole fraction)', 0.0135);

====

details: in water, 308.25 K
observable: solubility (mole fraction)

INSERT INTO assay_data (molsmiles, observable, reading) VALUES
  ('CC1(C)COP(=O)(C(C)(C)O)OC1', 'solubility (mole fraction)', 0.00757);

====

details: in ethyl acetate, 328.25 K
observable: solubility (mole fraction)

INSERT INTO assay_data (molsmiles, reading) VALUES
  ('CC1(C)COP(=O)(C(C)(C)O)OC1', 0.00563);

====

conditions: in chloroform, 317.75 K
observable: solubility (mole fraction)

INSERT INTO results (molsmiles, reading) VALUES
  ('CC1(C)COP(=O)(C(C)(C)O)OC1', 0.0421);

====

conditions: in chloroform, 278.9 K
observable: solubility (mole fraction)

INSERT INTO results (molsmiles, observable, reading) VALUES
  ('CC1(C)COP(=O)(C(C)(C)O)OC1', 'solubility (mole fraction)', 0.0132);

====

settings: in water, 332.9 K
observable: solubility (mole fraction)

INSERT INTO results (molsmiles, reading) VALUES
  ('CC1(C)COP(=O)(C(C)(C)O)OC1', 0.0112);

====

details: in methanol, 279.05 K
observable: solubility (mole fraction)

INSERT INTO assay_data (molsmiles, reading) VALUES
  ('CC1(C)COP(=O)(C(C)(C)O)OC1', 0.0374);

====

conditions: in acetonitrile, 278.65 K
observable: solubility (mole fraction)

INSERT INTO measurements (molsmiles, reading) VALUES
  ('CC1(C)COP(=O)(C(C)(C)O)OC1', 0.00174);

====

conditions: in water, 338.15 K
observable: solubility (mole fraction)

INSERT INTO results (molsmiles, reading) VALUES
  ('CC1(C)COP(=O)(C(C)(C)O)OC1', 0.0128);

====

conditions: in ethanol, 283.75 K
observable: solubility (mole fraction)

INSERT INTO results (molsmiles, reading) VALUES
  ('CC1(C)COP(=O)(C(C)(C)O)OC1', 0.023);

====

details: in acetone, 317.75 K
observable: solubility (mole fraction)

INSERT INTO assay_data (molsmiles, observable, reading) VALUES
  ('CC1(C)COP(=O)(C(C)(C)O)OC1', 'solubility (mole fraction)', 0.00998);

====

conditions: in acetonitrile, 298.25 K
observable: solubility (mole fraction)

INSERT INTO measurements (molsmiles, reading) VALUES
  ('CC1(C)COP(=O)(C(C)(C)O)OC1', 0.00413);

====

details: in 1,2-dichloroethane, 283.65 K
observable: solubility (mole fraction)

INSERT INTO results (molsmiles, observable, reading) VALUES
  ('CC1(C)COP(=O)(C(C)(C)O)OC1', 'solubility (mole fraction)', 0.00134);

====

conditions: in 1,2-dichloroethane, 298.25 K
observable: solubility (mole fraction)

INSERT INTO results (molsmiles, reading) VALUES
  ('CC1(C)COP(=O)(C(C)(C)O)OC1', 0.00249);

====

details: in ethyl acetate, 333.55 K
observable: solubility (mole fraction)

INSERT INTO assay_data (molsmiles, reading) VALUES
  ('CC1(C)COP(=O)(C(C)(C)O)OC1', 0.00714);

====

conditions: in chloroform, 293.85 K
observable: solubility (mole fraction)

INSERT INTO assay_data (molsmiles, observable, reading) VALUES
  ('CC1(C)COP(=O)(C(C)(C)O)OC1', 'solubility (mole fraction)', 0.0174);

====

details: in water, 283.55 K
observable: solubility (mole fraction)

INSERT INTO measurements (molsmiles, observable, reading) VALUES
  ('CC1(C)COP(=O)(C(C)(C)O)OC1', 'solubility (mole fraction)', 0.00713);

====

conditions: in acetone, 322.55 K
observable: solubility (mole fraction)

INSERT INTO measurements (molsmiles, reading) VALUES
  ('CC1(C)COP(=O)(C(C)(C)O)OC1', 0.0118);

====

details: in methanol, 283.75 K
observable: solubility (mole fraction)

INSERT INTO measurements (molsmiles, observable, reading) VALUES
  ('CC1(C)COP(=O)(C(C)(C)O)OC1', 'solubility (mole fraction)', 0.0416);

====

details: in acetonitrile, 332.65 K
observable: solubility (mole fraction)

INSERT INTO assay_data (molsmiles, observable, reading) VALUES
  ('CC1(C)COP(=O)(C(C)(C)O)OC1', 'solubility (mole fraction)', 0.0165);

====

settings: in methanol, 308.45 K
observable: solubility (mole fraction)

INSERT INTO measurements (molsmiles, reading) VALUES
  ('CC1(C)COP(=O)(C(C)(C)O)OC1', 0.0725);

====

settings: in chloroform, 308.05 K
observable: solubility (mole fraction)

INSERT INTO assay_data (molsmiles, reading) VALUES
  ('CC1(C)COP(=O)(C(C)(C)O)OC1', 0.0302);

====

details: in ethyl acetate, 293.75 K
observable: solubility (mole fraction)

INSERT INTO results (molsmiles, reading) VALUES
  ('CC1(C)COP(=O)(C(C)(C)O)OC1', 0.00129);

====

conditions: in water, 343.15 K
observable: solubility (mole fraction)

INSERT INTO measurements (molsmiles, reading) VALUES
  ('CC1(C)COP(=O)(C(C)(C)O)OC1', 0.0142);

====

details: in acetonitrile, 303.2 K
observable: solubility (mole fraction)

INSERT INTO measurements (molsmiles, observable, reading) VALUES
  ('CC1(C)COP(=O)(C(C)(C)O)OC1', 'solubility (mole fraction)', 0.00513);

====

details: in water, 303.3 K
observable: solubility (mole fraction)

INSERT INTO results (molsmiles, reading) VALUES
  ('CC1(C)COP(=O)(C(C)(C)O)OC1', 0.00736);

====

conditions: in acetone, 278.15 K
observable: solubility (mole fraction)

INSERT INTO measurements (molsmiles, reading) VALUES
  ('CC1(C)COP(=O)(C(C)(C)O)OC1', 0.0024);

====

conditions: in water, 328.05 K
observable: solubility (mole fraction)

INSERT INTO measurements (molsmiles, reading) VALUES
  ('CC1(C)COP(=O)(C(C)(C)O)OC1', 0.0102);

====

conditions: in ethanol, 303.55 K
observable: solubility (mole fraction)

INSERT INTO assay_data (molsmiles, observable, reading) VALUES
  ('CC1(C)COP(=O)(C(C)(C)O)OC1', 'solubility (mole fraction)', 0.0403);

====

settings: in water, 298.25 K
observable: solubility (mole fraction)

INSERT INTO measurements (molsmiles, observable, reading) VALUES
  ('CC1(C)COP(=O)(C(C)(C)O)OC1', 'solubility (mole fraction)', 0.00711);
